# assayed.target: T1, human Trop-2-ECD-6His fusion protein (human, UniProt P09758 27-274)
# T1 construct: Expressed in a human 293 cell line; also called huTrop-2; human Trop-2 antigen
# T1 sequence: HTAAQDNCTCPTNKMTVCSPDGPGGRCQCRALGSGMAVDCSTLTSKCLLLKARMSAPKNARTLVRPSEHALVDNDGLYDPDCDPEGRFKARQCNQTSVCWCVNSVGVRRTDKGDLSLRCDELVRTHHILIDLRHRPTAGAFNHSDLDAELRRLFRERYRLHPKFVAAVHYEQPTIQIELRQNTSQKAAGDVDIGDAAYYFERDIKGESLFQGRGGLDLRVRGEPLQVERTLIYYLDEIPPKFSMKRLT
# experimental.details: antigen binding ELISA on immobilized human Trop-2-ECD-6His
parameter.measured: EC50 (pM)
The figure you give is taken to be in pM; do not add the unit.

IN: In one line, give reported EC50 of the entry humanized IgG #118-2-5 HuD/LuY (antibody, V domains shown, Full-length IgG expressed in HEK293-6E cells; also called 8 (HuD/LuY)) VH: QVQLKESGPGLVAPSETLSITCTVSGFSLTSYGVNWIRQPPGKGLEWLGVMWAGGSTNYNSALMSRLTISKDTSKNQVSLKLSSVQAADTAMYYCARDENWDGAWFAYWGQGTLVTVSS VL: DIVMTQSPSSLAVSLGERATMSCKSSQSLLNSGTRKNYLAWYQQKPGQPPKLLISWASSRESGVPDRFSGSGSGTDFTLTISSVQAEDLAVYYCKQSYNLFTFGGGTKVEIK .
OUT: 5
